Sourced from PubChem BioAssay (NCATS)

assaySummary: qHTS of pediatric cancer cell lines to identify multiple opportunities for drug repurposing: Primary screen for MG 63 (6-TG R) cells (AID 1347105); further: nearly all actives have a fitted effect of over 50% in size
conditionsUsed: MG 63 (6-TG R) viability, CellTiter-Glo, 48 h; series mostly up to 46 µM
Records with an inconclusive call do not appear. Activity calls are given as the source filed them. The call rests on the fitted dose curve; in most records, active means well fitted cell-killing curve with a large enough effect; inconclusive means small, poorly fitted or top-dose-only effect; inactive means no such curve, though single readings can be large or run the other way.

compound	outcome
COc1c(O)cc2c(c1O)[C@@H]1O[C@H](CO)[C@@H](O)[C@H](O)[C@H]1OC2=O	inactive
CCOC(=O)c1c(C)n(C)c2ccc(O)cc12	inactive
CS(=O)(=O)OCCCCOS(C)(=O)=O	inactive
COc1ccc(C2(C#N)CCC(C(=O)O)CC2)cc1OC1CCCC1 (stereo unspecified)	inactive
O=C(O)c1cc(=O)c2c(OCC(O)COc3cccc4oc(C(=O)O)cc(=O)c34)cccc2o1	inactive
O=C(O)c1cccc(-c2noc(-c3ccccc3F)n2)c1	inactive
CC(C)(S)[C@@H](N)C(=O)O	inactive
Cc1c(OCC(F)(F)F)ccnc1CS(=O)c1nc2ccccc2[nH]1 (stereo unspecified)	inactive
Cc1ccc(NC(=O)c2ccc(CN3CCN(C)CC3)cc2)cc1Nc1nccc(-c2cccnc2)n1	inactive
CCCc1cc(=O)[nH]c(=S)[nH]1	inactive
Cc1cccc(-c2[nH]ncc2-c2ccc3ncccc3n2)n1	inactive

----------
As shown below, each of these compounds has a reported Z-AUC value.
assaySummary: qHTS drug screen for cell cycle checkpoint inhibitors in PARPi-resistant BRCA-mutant ovarian cancer cell lines. (AID 1963452)
conditionsUsed: PEO1/OlaR viability, CellTiter-Glo luminescence, 96 h; measured here: PEO1 parental Z-AUC; stronger effect = lower value

compound	Z-AUC
O=Nc1c(-c2c(O)[nH]c3cc(Br)ccc23)[nH]c2ccccc12	-0.18
CCCCc1ccc2nc(NC(=O)OC)[nH]c2c1	-1.68
CCN(CC)CCOc1ccc(Cc2ccccc2)cc1	0.729
O=C1NC(=O)C(c2ccccc2[N+](=O)[O-])=C1Nc1ccc(O)c(Cl)c1	0.49
Cc1ncc([N+](=O)[O-])n1CC(C)O (stereo unspecified)	1.06
O=C1c2c(O)cc(O)cc2OC(c2ccc(O)c(O)c2)C1O (stereo unspecified)	-0.249
CCC(C)(Oc1ccc(C2(c3ccc(OC(C)(CC)C(=O)O)cc3)CCCCC2)cc1)C(=O)O (stereo unspecified)	0.92
Clc1ccc(C(Cn2ccnc2)OCc2ccc(Sc3ccccc3)cc2)c(Cl)c1 (stereo unspecified)	-0.535
O=C1c2ccccc2-c2n[nH]c3cccc1c23	-0.118
C=C(c1ccc(C(=O)O)cc1)c1cc2c(cc1C)C(C)(C)CCC2(C)C	0.659
Cc1ccc(S(=O)(=O)NC(=O)NN2CC3CCCC3C2)cc1 (stereo unspecified)	0.956

----------
assaySummary: Quantitative High-Throughput drug screen in 47 multiple myeloma cell lines against the NCATS MIPE library collection: Karpas620_DSMZ cell viability assay (AID 1918959); further: nearly all actives have a fitted effect of over 30% in size
conditionsUsed: Karpas620 myeloma viability, CellTiter-Glo ATP luminescence, 48 h; series mostly up to 45.8 µM
Records with an inconclusive call do not appear. Active and inactive are the calls of the source. Calls follow the shape of the dose curve; as a rule, active = well fitted cell-killing curve with a large enough effect; inconclusive = small, poorly fitted or top-dose-only effect, or effect the other way; inactive = no such curve, though single readings can be large or run the other way.
Outcomes: active, inactive

compound	answerLabel
Cc1c(C(=O)NN2CCCCC2)nn(-c2ccc(Cl)cc2Cl)c1-c1ccc(Cl)cc1	active
N=C(N=C(N)N)N1CCOCC1	inactive
CCOC(=O)C(C)Oc1cccc2c(=O)n(CC(=O)Nc3ccc4c(c3)OCCO4)ccc12 (centres undefined)	inactive
COC(=O)C1=C(C)NC(C)=C(C(=O)OCCCN2CCC(c3ccccc3)(c3ccccc3)CC2)C1c1cccc([N+](=O)[O-])c1 (centres undefined)	inactive
CN(C)c1ccc2nc3ccc(=[N+](C)C)cc-3sc2c1	active
CCCCCCCCCCCCCCCCCCCCCCO	inactive
CN(C)CCCC1(c2ccc(F)cc2)OCc2cc(C#N)ccc21 (centres undefined)	inactive
CN1C(C(=O)Nc2ccccn2)=C(O)c2sccc2S1(=O)=O	inactive
CN(c1nccc(=O)[nH]1)C1CCN(c2nc3ccccc3n2Cc2ccc(F)cc2)CC1	inactive
COC(=O)C1=C(C)NC(C)=C(C(=O)OC(C)C)C1c1cccc2nonc12 (centres undefined)	inactive
Cc1ncc([N+](=O)[O-])n1CC(C)O (centres undefined)	inactive
O=c1ccc2ccc(O)c(O)c2o1	active
O=c1c(O)c(-c2cc(O)c(O)c(O)c2)oc2cc(O)cc(O)c12	inactive
COc1cc2c(N3CCN(C(=O)Nc4ccc(OC(C)C)cc4)CC3)ncnc2cc1OCCCN1CCCCC1	inactive
S=c1nc[nH]c2nc[nH]c12	inactive
CCN(CCO)CCCC(C)Nc1ccnc2cc(Cl)ccc12 (centres undefined)	inactive
O=P(O)(O)C(O)(Cn1ccnc1)P(=O)(O)O	inactive
CC(C)c1nc(CN(C)C(=O)N[C@H](C(=O)N[C@@H](Cc2ccccc2)C[C@H](O)[C@H](Cc2ccccc2)NC(=O)OCc2cncs2)C(C)C)cs1	inactive
O=Nc1c(-c2c(O)[nH]c3cc(Br)ccc23)[nH]c2ccccc12	active
NC(=O)Cc1cccc(C(=O)c2ccccc2)c1N	inactive
Nc1cccc2c1CN(C1CCC(=O)NC1=O)C2=O (centres undefined)	inactive
COc1cc2c(cc1OC)C1CC(=O)C(CC(C)C)CN1CC2 (centres undefined)	inactive
Oc1ccc2ccccc2c1SSc1c(O)ccc2ccccc12	active
O=C(CCc1ccc(O)cc1)c1c(O)cc(O)cc1O	active
